In this section we review reported pIC50 values for a set of compounds.
Tested on: Colo-205
Test: Antiproliferative activity, MTT assay, Colo-205
Format: cell-based
Details: Homo sapiens, 48 h
Please note pIC50 is a logarithmic value: minus log10 of concentration in mol/L. Answer with that number alone.

Here is how some compounds turned out for pIC50.
Query :: What does the record list as pIC50 for COc1cc2c(c(OC)c1OC)-c1ccc(N3CCC(c4ccccc4)CC3)c(=O)cc1C(NC(C)=O)CC2 (stereo not drawn) ?
Result :: 6.10

Query :: Next: COc1cc2c(c(OC)c1OC)-c1ccc(Nc3ccc(Cl)c(C(F)(F)F)c3)c(=O)cc1[C@@H](NC(C)=O)CC2
Result :: 7.52

More entries:
Query :: What does the record list as pIC50 for COc1cc2c(c(OC)c1OC)-c1ccc(N3CCC(N)CC3)c(=O)cc1[C@@H](NC(C)=O)CC2 ?
Result :: 5.30

###

Assay: Oral and IV pharmacokinetic studies
Assay type: in vivo
Settings: male, mouse, plasma; PO 10 mg/Kg, BALB/c mice
metric name: AUC(0-inf) (ng·h/mL)
The answer is to be given in ng·h/mL; state only the numeric part.

Query :: What does the record list as AUC(0-inf) for COc1cc2c(c(OC)c1OC)-c1ccc(Nc3ccc(Cl)c(C(F)(F)F)c3)c(=O)cc1[C@@H](NC(C)=O)CC2 ?
Result :: 17300

###

In this section we review reported solubility values for a set of molecules.
Assay: Thermodynamic equilibrium solubility
Format: physicochemical
Details: 25 °C, aqueous buffer, thermodynamic from solid; phosphate buffer saline, 25±1° C.; read-out: Solubility, PBS

Query :: What does the record list as solubility for COc1cc2c(c(OC)c1OC)-c1ccc(OC)c(=O)cc1[C@@H](NC(C)=O)CC2 [Compound 1, Colchicine] ?
Result :: 800 µg/mL

Query :: Next: COc1cc2c(c(OC)c1OC)-c1ccc(Nc3ccc(Cl)c(C(F)(F)F)c3)c(=O)cc1[C@@H](NC(C)=O)CC2 [Compound 1g]
Result :: > 1500 µg/mL

Here is the next item to consider.
Query :: What does the record list as solubility for COc1cc2c(c(OC)c1OC)-c1ccc(N3CCC(c4ccccc4)CC3)c(=O)cc1C(NC(C)=O)CC2 (stereo not drawn) [Compound 1d] ?
Result :: 80 µg/mL

###

In this section we review reported pIC50 values for a set of compounds.
System: Colo-205
Assay: Antiproliferative activity, MTT assay, Colo-205
Assay type: cell-based
Conditions: Homo sapiens, 48 h
Please note pIC50 is a logarithmic value: minus log10 of concentration in mol/L. Answer with that number alone.

Query :: # get_value(readout= pIC50, system= Colo-205) for COc1cc2c(c(OC)c1OC)-c1ccc(N3CCNCC3)c(=O)cc1[C@@H](NC(C)=O)CC2 [Compound 1a]
Result :: 5.10

Query :: Next: COc1cc2c(c(OC)c1OC)-c1ccc(N3CCc4c([nH]c5ccccc45)C3)c(=O)cc1[C@@H](NC(C)=O)CC2 [Compound 1f]
Result :: 6.10

Query :: Next: COc1cc2c(c(OC)c1OC)-c1ccc(N3CCC[C@@H]3CO)c(=O)cc1C(NC(C)=O)CC2 (stereo partly shown) [Compound 1e]
Result :: 5.10

Here is the next item to consider.
Query :: # get_value(readout= pIC50, system= Colo-205) for COc1cc2c(c(OC)c1OC)-c1ccc(N3CCN(C(=O)OC(C)(C)C)CC3)c(=O)cc1C(NC(C)=O)CC2 (stereo not shown) [Compound 1c]
Result :: 5.52

###

In this section we review reported solubility values for a set of compounds.
Experiment: Thermodynamic equilibrium solubility
Type: physicochemical
Settings: 25 °C, thermodynamic from solid; simulated gastric fluid, 25±1° C.; read-out: Solubility, SGF

Here is how some compounds turned out for solubility.
Query :: What does the record list as solubility for COc1cc2c(c(OC)c1OC)-c1ccc(N3CCC(c4ccccc4)CC3)c(=O)cc1C(NC(C)=O)CC2 (stereo not drawn) ?
Result :: > 1500 µg/mL

Query :: Next: COc1cc2c(c(OC)c1OC)-c1ccc(OC)c(=O)cc1[C@@H](NC(C)=O)CC2
Result :: 200 µg/mL

Here is the next item to consider.
Query :: What does the record list as solubility for COc1cc2c(c(OC)c1OC)-c1ccc(Nc3ccc(Cl)c(C(F)(F)F)c3)c(=O)cc1[C@@H](NC(C)=O)CC2 ?
Result :: > 1500 µg/mL

###

Test: Oral and IV pharmacokinetic studies
Type: in vivo
Conditions: male, BALB/c, mouse, plasma, iv, 1 mg/kg, IV 1 mg/Kg, BALB/c mice
metric name: clearance

Query :: What does the record list as clearance for COc1cc2c(c(OC)c1OC)-c1ccc(Nc3ccc(Cl)c(C(F)(F)F)c3)c(=O)cc1[C@@H](NC(C)=O)CC2 ?
Result :: ~6 mL/min/kg

###

Test: Oral and IV pharmacokinetic studies
Format: in vivo
Settings: male, BALB/c, mouse, plasma, iv, 1 mg/kg, IV 1 mg/Kg, BALB/c mice; read-out: Vdss
metric name: Vd

Query :: What does the record list as Vd for COc1cc2c(c(OC)c1OC)-c1ccc(Nc3ccc(Cl)c(C(F)(F)F)c3)c(=O)cc1[C@@H](NC(C)=O)CC2 ?
Result :: 1.47 L/kg

###

System: P-gp
Assay: P-gp induction assay, rhodamine123 (Rh123) cell exclusion method in LS-180 cells
Conditions: read-out: EC50, induction of P-gp; P-gp overexpressing LS-180 cells, 48 h
metric name: pEC50
Please note pEC50 is a logarithmic value: minus log10 of concentration in mol/L. Answer with that number alone.

Query :: What does the record list as pEC50 for COc1cc2c(c(OC)c1OC)-c1ccc(OC)c(=O)cc1[C@@H](NC(C)=O)CC2 [Compound 1, Colchicine] ?
Result :: 7.84

Query :: Next: COc1cc2c(c(OC)c1OC)-c1ccc(Nc3ccc(Cl)c(C(F)(F)F)c3)c(=O)cc1[C@@H](NC(C)=O)CC2 [Compound 1g]
Result :: 7.16

More entries:
Query :: What does the record list as pEC50 for COc1cc2c(c(OC)c1OC)-c1ccc(N3CCC(c4ccccc4)CC3)c(=O)cc1C(NC(C)=O)CC2 (stereo not drawn) [Compound 1d] ?
Result :: 7.53

###

Test: Oral and IV pharmacokinetic studies
Assay type: in vivo
Settings: male, mouse, plasma; PO 10 mg/Kg, BALB/c mice
metric name: AUC(0-t) (ng·h/mL)
The answer is to be given in ng·h/mL; state only the numeric part.

Query :: What does the record list as AUC(0-t) for COc1cc2c(c(OC)c1OC)-c1ccc(Nc3ccc(Cl)c(C(F)(F)F)c3)c(=O)cc1[C@@H](NC(C)=O)CC2 ?
Result :: 16900

###

Assay: Oral and IV pharmacokinetic studies
Assay type: in vivo
Conditions: male, mouse, plasma; IV 1 mg/Kg, BALB/c mice
Protocol: Oral and intravenous (IV) pharmacokinetic studies of compound 1g were carried out in BALB/c male mice (Jubilant Biosys Limited, Bangalore) of age 4-6 weeks, by administering 1g orally and IV at dose of 10 mg/kg for oral and 1 mg/kg for IV. Plasma samples were collected at appropriate time points between the range of 0 hours to 24 hours and analyzed by LC-MS-MS. Mean plasma concentration calculated and data were further analyzed for PK parameters using WinNonlin 5.3 software package.
metric name: AUC(0-t) (ng·h/mL)
The answer is to be given in ng·h/mL; state only the numeric part.

Query :: What does the record list as AUC(0-t) for COc1cc2c(c(OC)c1OC)-c1ccc(Nc3ccc(Cl)c(C(F)(F)F)c3)c(=O)cc1[C@@H](NC(C)=O)CC2 [Compound 1g] ?
Result :: 2340

###

Assay: Thermodynamic equilibrium solubility
Format: physicochemical
Conditions: 25 °C, thermodynamic from solid; water, 25±1° C.; read-out: Solubility, Water
In this section we review reported solubility values for a set of molecules.

Here is how some molecules turned out for solubility.
Query :: What does the record list as solubility for COc1cc2c(c(OC)c1OC)-c1ccc(N3CCC(c4ccccc4)CC3)c(=O)cc1C(NC(C)=O)CC2 (stereo not drawn) [Compound 1d] ?
Result :: 80 µg/mL

Query :: Next: COc1cc2c(c(OC)c1OC)-c1ccc(OC)c(=O)cc1[C@@H](NC(C)=O)CC2 [Compound 1, Colchicine]
Result :: > 1500 µg/mL

Here is the next item to consider.
Query :: What does the record list as solubility for COc1cc2c(c(OC)c1OC)-c1ccc(Nc3ccc(Cl)c(C(F)(F)F)c3)c(=O)cc1[C@@H](NC(C)=O)CC2 [Compound 1g] ?
Result :: > 1500 µg/mL

###

Assay: Oral and IV pharmacokinetic studies
Assay type: in vivo
Conditions: male, mouse, plasma; PO 10 mg/Kg, BALB/c mice; read-out: t1/2,β (converted)
metric name: half-life (h)
The answer is to be given in h; state only the numeric part.

Query :: What does the record list as half-life for COc1cc2c(c(OC)c1OC)-c1ccc(Nc3ccc(Cl)c(C(F)(F)F)c3)c(=O)cc1[C@@H](NC(C)=O)CC2 [Compound 1g] ?
Result :: 5.43
